experiment: thermal shift assay (TSA); assay type: physicochemical; conditions: pH 7, monovalent Nanobodies
Exercise: for every item that follows, state its recorded Tm at pH 7.

Molecule	Tm at pH 7
62C02: anti-MMP13 Nanobody, profile 2, SEQ ID NO: 11 (protein) VHH: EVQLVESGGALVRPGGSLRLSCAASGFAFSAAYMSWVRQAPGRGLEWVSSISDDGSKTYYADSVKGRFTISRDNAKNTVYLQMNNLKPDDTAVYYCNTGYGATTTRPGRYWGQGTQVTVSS	76.4 °C
517A01: anti-MMP13 Nanobody, profile 2, SEQ ID NO: 10; C010100087 is the parental of Table 6.7.1D (protein) VHH: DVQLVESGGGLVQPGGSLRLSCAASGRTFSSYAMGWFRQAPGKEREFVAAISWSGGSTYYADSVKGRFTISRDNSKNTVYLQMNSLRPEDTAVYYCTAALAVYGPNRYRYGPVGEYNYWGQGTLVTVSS	77.8 °C

Field: next molecule
INPUT: Which measured Tm at pH 7 value corresponds to 516G08: anti-MMP13 Nanobody, profile 2, SEQ ID NO: 13 (protein) VHH: DVQLVESGGGLVQPGGSLRLSCAGSGSIFRINVMAWYRQAPGKQRELVAAITSGGTTNYADSVKGRFTISRDNSKNTVYLQMNSLRPEDTAVYYCYADIGWPYVLDYDFWGQGTLVTVSS ?
OUTPUT: 65.2 °C
